Kindly state pKi for each of the entries shown.
# Assay Target: α1d (rat receptor expressed in mouse fibroblasts) (Rattus norvegicus, UniProt P23944)
# Construct: expressed in transfected cells; host or cells: mouse fibroblasts
# Sequence (P23944 1-561): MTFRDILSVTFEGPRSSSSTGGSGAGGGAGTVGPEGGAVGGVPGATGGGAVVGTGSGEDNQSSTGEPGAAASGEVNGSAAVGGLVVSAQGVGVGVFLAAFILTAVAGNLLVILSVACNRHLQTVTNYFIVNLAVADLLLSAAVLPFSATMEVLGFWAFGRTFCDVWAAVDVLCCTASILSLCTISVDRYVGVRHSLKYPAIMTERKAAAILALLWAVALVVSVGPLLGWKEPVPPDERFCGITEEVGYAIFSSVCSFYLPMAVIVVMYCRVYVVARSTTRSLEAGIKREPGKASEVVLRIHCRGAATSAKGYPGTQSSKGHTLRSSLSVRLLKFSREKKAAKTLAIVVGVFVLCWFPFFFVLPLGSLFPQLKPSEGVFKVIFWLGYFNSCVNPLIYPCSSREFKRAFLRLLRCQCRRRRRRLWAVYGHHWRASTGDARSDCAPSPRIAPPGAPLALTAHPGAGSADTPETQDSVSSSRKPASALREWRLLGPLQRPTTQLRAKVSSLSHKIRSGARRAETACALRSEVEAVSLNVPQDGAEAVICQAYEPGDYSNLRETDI
# Experiment Summary: Radioligand binding with [3H]-prazosin, α1d
# Condition Label: read-out: Radioligand Binding Ki α1d (Rat)
Where a name gives a salt, the structure may show the parent alone.
# pKi = -log10(concentration in molar units)

Data request: I am curious: what pKi value has been reported for CS(=O)(=O)Nc1c(O)ccc2c1CCCC2c1c[nH]cn1 (stereo not drawn) [Example 2, hydrochloride] ?
Data returned: 5.90

Data request: I am curious: what pKi value has been reported for Cn1cncc1C1CCCc2c1ccc(O)c2NS(C)(=O)=O (stereo not drawn) [Example 4, hydrochloride] ?
Data returned: 4.50

Data request: I am curious: what pKi value has been reported for Cn1cnc(C2CCCc3c2ccc(O)c3NS(C)(=O)=O)c1 (stereo not drawn) [Example 5, hydrochloride] ?
Data returned: 5.81

Data request: I am curious: what pKi value has been reported for CCCn1cnc(C2CCCc3c2ccc(O)c3NS(C)(=O)=O)c1 (stereo not drawn) [Example 7, hydrochloride] ?
Data returned: 5.42

Data request: I am curious: what pKi value has been reported for CCn1cnc(C2CCCc3c2ccc(O)c3NS(C)(=O)=O)c1.Cl (stereo not drawn) [Example 6, hydrochloride] ?
Data returned: 4.78

Data request: I am curious: what pKi value has been reported for COc1ccc2c(c1NS(C)(=O)=O)CCCC2c1c[nH]cn1 (stereo not drawn) [Example 1, hydrochloride] ?
Data returned: 6.32

---

# Assay Target: α1b (hamster receptor expressed in mouse fibroblasts) (Mesocricetus auratus, UniProt P18841)
# Construct: expressed in transfected cells; host or cells: mouse fibroblasts
# Sequence (P18841 1-515): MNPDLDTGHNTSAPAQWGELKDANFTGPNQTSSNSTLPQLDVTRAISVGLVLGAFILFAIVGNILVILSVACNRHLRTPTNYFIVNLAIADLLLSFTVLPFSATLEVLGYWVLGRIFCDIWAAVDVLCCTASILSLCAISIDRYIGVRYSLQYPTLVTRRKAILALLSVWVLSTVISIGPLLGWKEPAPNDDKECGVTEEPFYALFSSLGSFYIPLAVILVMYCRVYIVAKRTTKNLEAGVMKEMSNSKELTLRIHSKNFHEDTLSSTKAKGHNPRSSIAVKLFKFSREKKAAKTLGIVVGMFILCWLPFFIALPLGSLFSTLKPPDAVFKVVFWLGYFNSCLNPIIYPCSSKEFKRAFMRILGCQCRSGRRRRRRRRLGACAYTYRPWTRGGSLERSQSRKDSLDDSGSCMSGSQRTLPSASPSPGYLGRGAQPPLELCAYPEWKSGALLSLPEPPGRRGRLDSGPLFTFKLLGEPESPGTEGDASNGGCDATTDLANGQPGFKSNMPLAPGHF
# Experiment Summary: Radioligand binding with [3H]-prazosin, α1b
# Condition Label: hamster receptor expressed in mouse fibroblasts, [3H]-prazosin; read-out: Radioligand Binding Ki α1b (Hamster)
Structures can show the parent of a compound that is named as a salt.
Kindly state Ki for each of the entries shown.
State the answer as a number, implicitly in µM.

Data request: I am curious: what Ki value has been reported for CCS(=O)(=O)Nc1cccc2c1CCCC2c1c[nH]cn1.O=C(O)/C=C\C(=O)O (stereo not drawn) [Example 12, maleate] ?
Data returned: 6.98

Data request: I am curious: what Ki value has been reported for CCS(=O)(=O)Nc1cccc(Cc2c[nH]cn2)c1.O=C(O)/C=C\C(=O)O [Example 30, maleate] ?
Data returned: 0.882

Data request: I am curious: what Ki value has been reported for Cc1nc(C2CCCc3c2ccc(O)c3NS(C)(=O)=O)c[nH]1 (stereo not drawn) [Example 3, hydrochloride] ?
Data returned: 50.4

Data request: I am curious: what Ki value has been reported for O=S(=O)(CCCCl)Nc1cccc2c1CCCC2c1cnc[nH]1 (stereo not drawn) ?
Data returned: 4.4

Data request: I am curious: what Ki value has been reported for Cl.Cn1cnc(C2CCCc3c(NS(C)(=O)=O)cccc32)c1 (stereo not drawn) [Example 14, hydrochloride] ?
Data returned: 2.02

Data request: I am curious: what Ki value has been reported for Cn1cnc(S(=O)(=O)Nc2cccc3c2CCCC3c2cnc[nH]2)c1 (stereo not drawn) ?
Data returned: 1.13

Data request: I am curious: what Ki value has been reported for O=S(=O)(Nc1cccc2c1CCCC2c1cnc[nH]1)c1cccc2cccnc12 (stereo not drawn) ?
Data returned: 1.19

Data request: I am curious: what Ki value has been reported for CCS(=O)(=O)Nc1cccc2c1CCCC2c1c[nH]cn1.O=C(O)/C=C\C(=O)O (single isomer, unassigned; (+)) [Example 33, maleate] ?
Data returned: 1.3

Data request: I am curious: what Ki value has been reported for COc1ccc(S(=O)(=O)Nc2cccc3c2CCCC3c2cnc[nH]2)cc1 (stereo not drawn) ?
Data returned: 1.05
